// provenance: PubChem BioAssay (NCI)

Tested on: NCI-H460 lung
Assay: NCI-60 one-dose screen, 48 h (100 = growth as untreated, 0 = no growth, -100 = all killed)
Conditions: 10 µM
This is part of a sample that, as a whole, favours compounds with a hit. Of some 83,000 tested, about 20% had one in any assay.
Attribute: growth
Entry rule: numbers only, all in %.

See these solved cases before continuing.
compound: COc1cc(/C=C2\Oc3cc(OCC(=O)c4ccccc4)ccc3C2=O)cc(OC)c1OC
tgt: NCI-H460 lung
property: growth
scale-unit: %
observed-result: 93

compound: N#Cc1cccc(OCc2nc(N)nc(N)c2-c2ccc(Cl)c(Cl)c2)c1
tgt: NCI-H460 lung
property: growth
scale-unit: %
observed-result: 11.5

compound: Nc1ccn(C2CC(O)C(CO)O2)c(=O)n1 (stereo not drawn)
tgt: NCI-H460 lung
property: growth
scale-unit: %
observed-result: 102

Query block: What value of measured growth is listed for Cc1cc(N(CCCNc2ccnc3cc(Cl)ccc23)Cc2ccc3c(c2)OCO3)nc(N2CCCCC2)n1 ?
Result block: -30.8

Query block: Follow-up entry: COc1cc2cc3c(nc2cc1OC)CCN3Cc1ccc(NC(=O)Nc2ccc(F)cc2F)cc1
Result block: 97.6

Query block: // same read-out, input: COc1ccc2nc3cc(Cl)ccc3c(NCCNCC(C)O)c2c1 (stereo not drawn)
Result block: 0.055

Query block: And the next one, CCCCCCCCCCCCCCCCCCOCC(COCCOCC[N+]1(CCCCCC(=O)[O-])CCCC1)Oc1ncccn1 (stereo not drawn) ?
Result block: 23.7

Query block: Repeat with O=C(CCCCC(=O)Nc1ccc2c(c1)/C(=C/c1ccc[nH]1)C(=O)N2)NO
Result block: 97.6

Query block: Please do the same for COc1cc2c(cc1OCCCCCCN1CCN(CC(=O)Nc3ccc(Cl)cc3C(=O)c3ccccc3Cl)CC1)N=CC1CCCN1C2=O (stereo not drawn) as well.
Result block: -30.5

Query block: Also CCN(CC)CCC(CNc1c(C)cnc2cc(Cl)ccc12)c1ccc(Cl)cc1 (stereo not drawn) , if possible.
Result block: 67.7

Query block: Let us now turn to O=C1/C(=C\c2cn(C(=O)c3ccc(Cl)cc3)c3ccccc23)c2ccccc2N1C(=O)c1ccc(Cl)cc1
Result block: 86

Query block: Request: CCOC(=O)N1C/C(=C/c2ccc(OC)cc2)C(=O)/C(=C/c2ccc(OC)cc2)C1
Result block: 42

Query block: Cool, now O=[N+]([O-])c1cccc(-c2ncc(-c3ccc(Cl)cc3Cl)[nH]2)c1
Result block: 84.1
